# assayExplanation: Leaching test: measurement of a leakage (leaching rate)
# Format: biochemical
# assaySetup: pH 5.0; hydrophobic material alone; 37° C., 90 min; mean of three ± SD
# Hydrophobic material only Leakage (%) values compiled below
API: value field is a number in %; no unit string.

# count of solved cases: 5
- compound: "CCCCCC(=O)OCC(COC(=O)CCCCC)OC(=O)CCCCC"
  assayEndpoint: "Hydrophobic material only Leakage (%)"
  unitName: "%"
  measuredResult: 8.4
- compound: "CCCCCCCC/C=C\\CCCCCCCC(=O)[O-].[Na+] [Oleic acid, Sodium oleate]"
  assayEndpoint: "Hydrophobic material only Leakage (%)"
  unitName: "%"
  measuredResult: 76.0
- compound: "Cc1c(C)c2c(c(C)c1O)CCC(C)(CCCC(C)CCCC(C)CCCC(C)C)O2 (racemic)"
  assayEndpoint: "Hydrophobic material only Leakage (%)"
  unitName: "%"
  measuredResult: 8.8
- compound: "CC(C)CCC[C@@H](C)[C@H]1CC[C@H]2[C@@H]3CC=C4C[C@@H](O)CC[C@]4(C)[C@H]3CC[C@]12C"
  assayEndpoint: "Hydrophobic material only Leakage (%)"
  unitName: "%"
  measuredResult: 7.6
- compound: "CC(C)=CCC/C(C)=C/CC/C(C)=C/CC/C=C(\\C)CC/C=C(\\C)CCC=C(C)C"
  assayEndpoint: "Hydrophobic material only Leakage (%)"
  unitName: "%"
  measuredResult: 9.0

Query block: State the recorded Hydrophobic material only Leakage (%) for this entry: CCCCCCCCO
Result block: 11.7

Query block: Also, CCCCCCCCCCCC(=O)O please.
Result block: 14.2

Query block: Also, CCCCCCCC(=O)OCC(O)CO (stereo not drawn) [Monocaprylin, Glycerol monocaprylate] please.
Result block: 8.5

Query block: Also, CCCCCCCC/C=C\CCCCCCCC(=O)OCC [Ethyl oleate] please.
Result block: 11.2

----------
# assayExplanation: Leaching test: measurement of a leakage (leaching rate)
# Type: biochemical
# assaySetup: pH 5.0; hydrophobic material alone; 37° C., 90 min; mean of three ± SD
assayEndpoint: Hydrophobic material only Leakage (%)

# count of solved cases: 2
- compound: "CCCCCCCCCCCCCCCCO"
  measuredResult: "11.0 ± 0.5%"
- compound: "CCCCCCCCCCCC(=O)OCC(O)CO (stereo not drawn) [Monolaurin, Glycerol monolaurate]"
  measuredResult: "5.6 ± 0.4%"

Now for the compound whose Hydrophobic material only Leakage (%) we want.
Query block: State the recorded Hydrophobic material only Leakage (%) for this entry: N[C@@H](Cc1c[nH]cn1)C(=O)O
Result block: 8.9 ± 0.5%

----------
# assayExplanation: Leaching test: measurement of a leakage (leaching rate)
# Format: biochemical
# assaySetup: pH 5.0; hydrophobic material alone; 37° C., 90 min; mean of three ± SD
assayEndpoint: Hydrophobic material only Leakage (%)
API: value field is a number in %; no unit string.

# count of solved cases: 3
- compound: "CC(C)CCCC(C)CCCC(C)CCCCC(C)CCCC(C)CCCC(C)C (stereo not drawn)"
  unitName: "%"
  Hydrophobic material only Leakage (%): 9.4
- compound: "CCCCCCCCCCCCCCCCCC(=O)OCC(O)CO (stereo not drawn) [Monostearin, Glycerol monostearate]"
  unitName: "%"
  Hydrophobic material only Leakage (%): 9.6
- compound: "CCCCCCCCCCCC(=O)OCC [Ethyl laurate]"
  unitName: "%"
  Hydrophobic material only Leakage (%): 11.9

Query block: State the recorded Hydrophobic material only Leakage (%) for this entry: CCCCCCCCCCCCCC(=O)OCC(O)CO (stereo not drawn) [Monomyristin, Glycerol monomyristate]
Result block: 5.4

Query block: Also, CC(=O)Oc1c(C)c(C)c2c(c1C)CCC(C)(CCC[C@H](C)CCC[C@H](C)CCCC(C)C)O2 (mixture of isomers) [α-Tocopherol acetate, DL-α-tocopherol acetate] please.
Result block: 7.0

Query block: Also, CCCCCCCCCCCCCCCCCC(=O)OCC(CO)OC(=O)CCCCCCCCCCCCCCCCC (stereo not drawn) [Glycerol distearate] please.
Result block: 11.0

Query block: Also, CCCCCCCCCCCCCCCCCCCCO please.
Result block: 8.6

Query block: Also, CCCCCCCC/C=C\CCCCCCCC(=O)OCC(CO)OC(=O)CCCCCCC/C=C\CCCCCCCC (stereo not drawn) [Glycerol dioleate] please.
Result block: 7.4

Query block: Also, CCCCCCCCCCCCCCCC(=O)OC[C@H](O)[C@H]1OC(=O)C(O)=C1O [Ascorbyl palmitate] please.
Result block: 9.9
